Biological target: Gamma-aminobutyric acid receptor subunit alpha-1/alpha-2/beta-2/gamma-2 (Homo sapiens, UniProt P14867+P18507+P47869+P47870); also: assay procedure not described here
Sequence (P14867 whole entry): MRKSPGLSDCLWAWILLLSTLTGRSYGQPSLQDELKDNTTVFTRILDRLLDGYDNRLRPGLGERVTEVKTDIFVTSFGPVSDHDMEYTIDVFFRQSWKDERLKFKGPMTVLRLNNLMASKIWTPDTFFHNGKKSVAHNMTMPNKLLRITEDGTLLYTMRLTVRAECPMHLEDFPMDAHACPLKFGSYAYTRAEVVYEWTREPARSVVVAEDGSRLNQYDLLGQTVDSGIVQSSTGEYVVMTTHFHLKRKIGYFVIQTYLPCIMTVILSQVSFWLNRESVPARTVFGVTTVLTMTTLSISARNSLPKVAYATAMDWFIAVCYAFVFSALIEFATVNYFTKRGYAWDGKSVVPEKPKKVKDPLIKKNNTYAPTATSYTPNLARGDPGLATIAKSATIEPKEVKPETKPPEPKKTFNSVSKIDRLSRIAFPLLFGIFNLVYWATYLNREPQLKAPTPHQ
Sequence (P47870 whole entry): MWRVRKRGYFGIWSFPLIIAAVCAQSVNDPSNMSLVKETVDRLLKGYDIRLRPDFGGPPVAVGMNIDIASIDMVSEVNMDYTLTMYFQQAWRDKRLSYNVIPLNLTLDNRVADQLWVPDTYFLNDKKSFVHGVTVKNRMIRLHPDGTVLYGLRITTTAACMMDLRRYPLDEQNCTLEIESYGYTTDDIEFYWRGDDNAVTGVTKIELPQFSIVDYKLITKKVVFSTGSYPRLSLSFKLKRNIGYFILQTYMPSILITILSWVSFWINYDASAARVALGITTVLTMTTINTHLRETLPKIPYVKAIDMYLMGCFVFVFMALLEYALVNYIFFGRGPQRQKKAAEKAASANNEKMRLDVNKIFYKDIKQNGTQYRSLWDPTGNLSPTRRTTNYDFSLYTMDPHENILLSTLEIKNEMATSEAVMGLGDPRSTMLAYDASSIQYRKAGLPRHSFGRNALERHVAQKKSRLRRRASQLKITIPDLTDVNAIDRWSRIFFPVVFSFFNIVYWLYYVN
Sequence (P18507 whole entry): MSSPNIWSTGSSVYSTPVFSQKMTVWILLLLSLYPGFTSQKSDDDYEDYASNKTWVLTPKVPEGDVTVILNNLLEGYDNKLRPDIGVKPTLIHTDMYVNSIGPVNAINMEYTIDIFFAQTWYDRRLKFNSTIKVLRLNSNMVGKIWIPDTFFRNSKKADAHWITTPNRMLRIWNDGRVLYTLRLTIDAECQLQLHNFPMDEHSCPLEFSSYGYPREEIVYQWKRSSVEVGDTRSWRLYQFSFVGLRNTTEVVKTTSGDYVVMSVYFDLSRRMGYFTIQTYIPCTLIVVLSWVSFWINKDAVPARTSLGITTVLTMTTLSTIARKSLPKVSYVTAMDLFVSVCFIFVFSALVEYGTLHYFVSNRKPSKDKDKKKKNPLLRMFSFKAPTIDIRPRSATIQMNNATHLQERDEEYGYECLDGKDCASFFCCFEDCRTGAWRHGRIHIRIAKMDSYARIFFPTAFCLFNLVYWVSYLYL
Sequence (P47869 whole entry): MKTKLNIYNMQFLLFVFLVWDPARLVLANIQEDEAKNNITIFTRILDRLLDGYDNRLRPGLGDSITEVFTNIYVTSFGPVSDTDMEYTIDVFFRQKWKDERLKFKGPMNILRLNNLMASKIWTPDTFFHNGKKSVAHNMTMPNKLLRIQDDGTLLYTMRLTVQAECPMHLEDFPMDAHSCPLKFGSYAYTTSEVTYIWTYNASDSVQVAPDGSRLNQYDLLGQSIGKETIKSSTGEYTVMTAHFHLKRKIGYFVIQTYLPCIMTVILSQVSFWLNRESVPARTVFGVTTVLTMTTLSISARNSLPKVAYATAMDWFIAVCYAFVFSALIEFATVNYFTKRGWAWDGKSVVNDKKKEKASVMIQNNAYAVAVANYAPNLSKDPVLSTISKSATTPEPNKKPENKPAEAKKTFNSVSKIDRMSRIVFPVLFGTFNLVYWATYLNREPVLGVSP
Format: functional, cell-based
measurementLabel: AC50

compound	AC50
Cc1nnc(SCC2=C(C(=O)O)N3C(=O)[C@@H](NC(=O)Cn4cnnn4)[C@H]3SC2)s1	> 2400 µM
CCOc1nc2cccc(C(=O)O)c2n1Cc1ccc(-c2ccccc2-c2nnn[nH]2)cc1	> 30 µM
CN1Cc2c(N)cccc2C(c2ccccc2)C1 (stereo not given)	> 30 µM

Read off the recorded AC50 for c1ccc(C2(N3CCCCC3)CCCCC2)cc1
> 30 µM

Read off the recorded AC50 for CNCCc1ccc(OC(=O)C(C)C)c(OC(=O)C(C)C)c1
> 30 µM
